B1: Twister Ribozyme (parent)
chain: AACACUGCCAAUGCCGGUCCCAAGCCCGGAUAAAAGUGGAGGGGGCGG

Variants of: B1
Assay: self-cleavage, relative activity (ratio to wild type); higher = more cleavage; co-transcriptional
Answer 0 if self-cleavage is under 0.2, and 1 if it is 0.2 or more.

Some solved entries appear below for comparison.
{"variantNotation": "A10U G17A", "classLabel": 1}
{"variantNotation": "A4C A33C", "classLabel": 0}

Reported self-cleavage reaches at least 0.2 for U6A U18A ?
0

Same thing, different variant: C8G A22G
0

Param item: A30G G42C
1

Okay, and A30U A35U ?
1

Input A11G G42C
1
